target_or_test_system: recombinant human TFPI (tissue factor pathway inhibitor) (human, UniProt P10646 29-304)
test_description: cell-based or functional assay
value_type: FXa assay OD, 20 nM Ab, 10 nM TFPI
Please reply with the value in numeric form only.

clone 1123 (antibody, V domains shown) VH: EVQLVESGGGLVKPGGSLRLSCAASGFTFSSYAMNWVRQAPGKGLEWVSTITTGGSHTYYADSVEGRFTISRDNAKNSLYLQMNSLRAEDTAVYYCARQDGHFLMDYWGQGTLVTVSS VL: DVVMTQTPLSLPVTLGQPASISCKSSQSLLDIDGKTYLNWLQQRPGQSPKRLIYLVSKLDSGVPDRFTGSGSGTDFTLKISRVEAEDVGVYYCWQGTHFPFTFGQGTKVEIKR; 0.424

Could you now consider this next binder?
Output measured FXa assay OD, 20 nM Ab, 10 nM TFPI for this item: clone 1023 (antibody, V domains shown, scFv on yeast at selection; human IgG4/kappa IgG as purified) VH: EVQLVESGGGLVKPGGSLRLSCAASGFTFSSYAMNWVRQAPGKGLEWVGTITTGGSYTYYADSVDGRFTISRDNAKNSLYLQMNSLRAEDTAVYYCARQDGNFLMDYWGQGTLVTVSS VL: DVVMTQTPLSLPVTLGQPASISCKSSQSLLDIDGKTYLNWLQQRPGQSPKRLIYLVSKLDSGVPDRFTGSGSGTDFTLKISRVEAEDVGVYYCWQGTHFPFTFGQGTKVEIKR
0.488
